Molecular target: human tyrosinase (Homo sapiens)
Construct: endogenous in cells
Sequence (P14679 19-529): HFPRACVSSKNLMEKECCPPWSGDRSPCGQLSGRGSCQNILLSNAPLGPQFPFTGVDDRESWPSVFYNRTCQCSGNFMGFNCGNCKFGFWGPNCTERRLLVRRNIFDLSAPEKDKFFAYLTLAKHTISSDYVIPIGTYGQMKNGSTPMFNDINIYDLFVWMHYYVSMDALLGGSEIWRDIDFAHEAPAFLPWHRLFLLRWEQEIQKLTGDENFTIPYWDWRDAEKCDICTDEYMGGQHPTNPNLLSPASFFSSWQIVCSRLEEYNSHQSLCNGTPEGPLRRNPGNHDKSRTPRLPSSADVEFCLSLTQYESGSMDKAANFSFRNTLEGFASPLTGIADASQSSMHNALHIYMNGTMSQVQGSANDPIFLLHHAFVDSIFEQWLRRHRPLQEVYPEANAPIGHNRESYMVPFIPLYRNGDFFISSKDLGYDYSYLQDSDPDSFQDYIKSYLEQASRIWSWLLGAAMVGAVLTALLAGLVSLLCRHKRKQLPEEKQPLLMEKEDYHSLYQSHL
Experiment: Tyrosinase (DOPA Oxidase) Assay Using Cell Lysate
Settings: SKMEL 188 human melanoma cell lysate; L-DOPA 100 μg/ml; incubated 8 hrs; read at 405 nm
VALUE_KIND: IC50

Entry under review: ON=C1CCC(c2ccc(O)cc2O)C1 (racemic) [Example 23] . Reported IC50?
~2000 nM
